experimental_target: T1, BCL-2-D111A (human, UniProt P10415 1-34; Q07817 33-48; P10415 92-207, D111A, biotin (biotinylated for SPR; site not stated))
T1 construct: BCL-2, human, residues 1-34 of the chimera, as m6; BCL-XL, human, residues 33-48, in place of BCL-2 residues 35-50; BCL-2, human, residues 92-207; Chimera m6 with the point mutation D111A made by mutagenic PCR; also called BCL-2 D111A mutant; source: E. coli BL21 (DE3), purified (Ni-NTA, Superdex 75, RESOURCE Q, Superdex 200)
T1 sequence (P10415 other isoform, or with tags, fused parts or gaps D111A | D111A | D111A D111A): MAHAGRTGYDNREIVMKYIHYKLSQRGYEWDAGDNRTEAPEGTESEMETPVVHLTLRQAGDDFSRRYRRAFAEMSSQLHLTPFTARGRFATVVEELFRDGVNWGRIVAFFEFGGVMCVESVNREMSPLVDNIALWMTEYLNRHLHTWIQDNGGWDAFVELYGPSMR
measurement_protocol: SPR; Biacore T200; biotinylated proteins immobilised on a CAP sensor chip; peptides flowed in multiple cycles (25-12800 nM, depending on the peptides) at 30 uL/min; 10 mM PBS, 50 uM EDTA, 0.05% Tween-20, 25 °C; affinity fitting, 1:1 binding model
condition_context: both partners purified
Positions of bridges follow the written chain, without caps; N, C: chain ends. No end group written: not given here. cADT = 2-aryl-4,5-dihydrothiazole (ADT) linker
Assign pKd to each entry below.
Answers are plain numbers, as −log10 of the molar value.

Enquiry: Give the reported pKd for this binder. CPIRYPWDVEC (linker 1-11 via cADT (inferred), cyclic peptide from the second phage library CPXRYXWDXXC screened against BCL-XL; they agree with P6, V9 and E10 named in the text) [cp3]
Return: 7.05

Now turn to the next binder.
Enquiry: Give the reported pKd for this binder. CPIRYEWDEFC (linker 1-11 via cADT (inferred), cyclic peptide from the second phage library CPXRYXWDXXC screened against BCL-2; they agree with I3, E6, E9 and F10 named in the text) [cp2]
Return: 6.92
